Catalogue of binders with associated ELISA CD137-Fc (RLU)
biological target: T1, recombinant biotinylated human CD137 protein (Fc-fusion protein, R&D Systems 838-4B) (human, UniProt Q07011 24-186, biotinylated (site not stated)); assay: ELISA, bacterial lysate on plate-bound antigen, luminescence
T1 construct: Bought Fc fusion; The ELISA used the same antigen as the panning; also called CD137-Fc; biotinylated CD137; not shown: Fc part of the bought fusion protein
Give the value, in units of RLU, as a plain number.

Here's what some known entries look like.
{"binder": "ISOP120GR5P1E1 (designed binder, not shown: small tags and cut ends, FN3 domain (Centyrin); tested as E. coli lysate) LPAPKNLVVSRVTEDSARLSWTAPDAAFDSFIIQYAEDSSWGEAINLHVPGSERSYDLTGLKPGTEYHVHIYGVKGGEASNPLWAWFTT", "value_observed": "1.02e+06"}
{"binder": "ISOP120BR5P1A5 (designed binder, not shown: small tags and cut ends, FN3 domain (Centyrin); tested as E. coli lysate) LPAPKNLVVSRVTEDSARLSWAGHYRKIRNFDSFLIQYQESEKVGEAIVLTVPGSKRSYDLTGLKPGTEYTVSIYGVKFPYYYATADSNPLSAIFTT", "value_observed": 503000}

The value of ELISA CD137-Fc (RLU) measured for the binder ISOP120GR5P1A10 (designed binder, not shown: small tags and cut ends, FN3 domain (Centyrin); tested as E. coli lysate) LPAPKNLVVSRVTEDSARLSWTAPDAAFDSFEIPYIEVETIGEAIWLHVPGSERSYDLTGLKPGTEYSVGINGVKGGHTSNPLSARFTT turned out to be 627000

Briefly, ELISA CD137-Fc (RLU) measured for ISOP120BR5P1E2 (designed binder, not shown: small tags and cut ends, FN3 domain (Centyrin); tested as E. coli lysate) LPAPKNLVVSRVTEDSARLSWAQELDHFDSFLIQYQESEKVGEAIVLTVPGSERSYDLTGLKPGTEYTVSIYGVYWTWWVRWNSNPLSAIFTT : 882000

Entry ISOP120ER5P1A7 (designed binder, not shown: small tags and cut ends, FN3 domain (Centyrin); tested as E. coli lysate) LPAPKNLVVSRVTEDSARLSWTAPDAAFDSFNIGYYERIIPGEAIVLTVPGSERSYDLTGLKPGTEYSVLICGVKGGKGSIPLSAIFTT , ELISA CD137-Fc (RLU) reported as 1.11e+06

// ELISA CD137-Fc (RLU) value for ISOP120GR5P1C10 (designed binder, not shown: small tags and cut ends, FN3 domain (Centyrin); tested as E. coli lysate) LPAPKNLVVSRVTEDSARLSWTAPDGAFDSFEIPYIEVETIGEAIWLHVPGSERSYDLTGLKPGTEYSVGINGVKGGHTSNPLSARFTT : 502000

Recorded result, ISOP120HR5P1H7 (designed binder, not shown: small tags and cut ends, FN3 domain (Centyrin); tested as E. coli lysate) LPAPKNLVVSRVTEDSARLSWTAPDAAFDSFDIYYGEPGNLGEAIVLTVPGSERSYDLTGLKPGTEYLVTIYGVKGGDYSSPLSAIFTT , ELISA CD137-Fc (RLU): 1.53e+06

Data point: ISOP120GR5P1B11 (designed binder, not shown: small tags and cut ends, FN3 domain (Centyrin); tested as E. coli lysate) LPAPKNLVVSRVTEDSARLSWTAPDAAFDSFNIKYWEANLYGEAIVLTVPGSERSYGLTGLKPGTEYRVHIRGVKGGINSFPLVAVFTT ; ELISA CD137-Fc (RLU) = 875000

ELISA CD137-Fc (RLU) measured on ISOP120HR5P1A7 (designed binder, not shown: small tags and cut ends, FN3 domain (Centyrin); tested as E. coli lysate) LPAPKNLVVSRVTEDSARLSWTAPDAAFDSFEIYYAEPRYYGEAIVLTVPGSERSYDLTGLKPGTEYTVTIYGVKGGYYSSPLSAIFTT = 987000

The binder listed as ISOP120AR5P1H3 (designed binder, not shown: small tags and cut ends, FN3 domain (Centyrin); tested as E. coli lysate) LPAPKNLVVSRVTEDSARLSWKWISHEPLEFDSFLIQYQESEKVGEAIVLTVPGSERSYDLTGLKPGTEYTVSIYGVGRHYTVYDSNPLSAIFTT has a reported ELISA CD137-Fc (RLU) of 769000

Record summary for ISOP120HR5P1G4 (designed binder, not shown: small tags and cut ends, FN3 domain (Centyrin); tested as E. coli lysate) LPAPKNLVVSRVTEDSARLSWTAPDAAFDSFEIYYREYWYSGEAIVLTVPGSERSYDLTGLKPGTEYLVTIYGVKGGWYSDPLSAIFTT : reported ELISA CD137-Fc (RLU) = 347000
